Give measured %Inh for each item. Keep answers brief.
- Test system: KIT
- Experimental Setup: concentration: 1 μM, replicates: in singlicate; n = 1;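 also: KINOMEscan kinase panel screen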
Entry rule: numbers only, all in %.

Would you mind telling me what %Inh value was observed for O=C(NCCNc1ccnc(Nc2ccc(F)cc2)n1)Nc1ccc2c(c1)OCO2 [GSK1379882] ?
34

Would you mind telling me what %Inh value was observed for COc1cc2ncn(-c3cc(OCc4ccc(S(C)(=O)=O)cc4)c(C(N)=O)s3)c2cc1OC [GW869979] ?
0

Would you mind telling me what %Inh value was observed for "CCc1nc(-c2cccc(C)c2)c(-c2ccncc2)s1" ?
42

Would you mind telling me what %Inh value was observed for CCn1c(-c2ccoc2)nc2cnccc21 [SB-733887] ?
5

Would you mind telling me what %Inh value was observed for O=C(Nc1n[nH]c2cc(-c3ccccc3F)ccc12)C1CC1 [SB-733371] ?
10

====

- Tested on: ROCK2
- Experimental Setup: concentration: 1 μM, replicates: in singlicate; n = 1
Give measured %Inh for each item. Keep answers brief.
Entry rule: numbers only, all in %.

Would you mind telling me what %Inh value was observed for "COc1cc2ncn(-c3cc(OCc4ccc(S(C)(=O)=O)cc4)c(C(N)=O)s3)c2cc1OC" ?
32

Would you mind telling me what %Inh value was observed for "CN(C)c1cc(-c2ccc3c(N)n[nH]c3c2)nc(N)n1" ?
0

Would you mind telling me what %Inh value was observed for "CCS(=O)(=O)c1ccc(OC)c(Nc2ncc(-c3ccc(F)cc3)o2)c1.Cl" ?
16

Would you mind telling me what %Inh value was observed for "Cc1nn2c(=O)cc(N3CCOCC3)nc2n1Cc1cccc(Cl)c1Cl" ?
0

Would you mind telling me what %Inh value was observed for "CCCNC(=O)Nc1ccc(Oc2ncnc3ccn(C)c23)cc1" ?
6

Would you mind telling me what %Inh value was observed for "CCC(=O)c1c(-c2ccccc2)c2cc(Cl)ccc2c(=O)n1Cc1cc(S(C)(=O)=O)n(CC(N)=O)n1" ?
0

Would you mind telling me what %Inh value was observed for "CCC(=O)c1c(-c2ccccc2)c2cc(Cl)ccc2c(=O)n1Cc1ccc(C(=O)O)cc1" ?
0

Would you mind telling me what %Inh value was observed for "CCCC(=O)Nc1n[nH]c2ncc(-c3cccc4ccccc34)cc12" ?
3

Would you mind telling me what %Inh value was observed for "Cc1ccc(Oc2ccc(Nc3ncnc4cc[nH]c34)cc2C)cn1" ?
0

Would you mind telling me what %Inh value was observed for "OCCCNc1nccc(-c2c(-c3cccc(C(F)(F)F)c3)nn3cc(C(F)(F)F)ccc23)n1" ?
24

Would you mind telling me what %Inh value was observed for "CCn1c(-c2ccoc2)nc2cnccc21" ?
23

Would you mind telling me what %Inh value was observed for "Cc1cccc(-c2nc(Nc3ccc4c(cnn4C)c3)c3ccccc3n2)n1" ?
0

Would you mind telling me what %Inh value was observed for "Nc1nccc2scc(-c3ccc4c(c3)CCN4C(=O)Cc3ccccc3)c12" ?
38

Would you mind telling me what %Inh value was observed for "COc1ccc(-n2cnc3c(N)ncnc32)cc1" ?
20

Would you mind telling me what %Inh value was observed for "CCC(=O)c1c(-c2ccccc2)c2cc(Cl)ccc2c(=O)n1Cc1cc(S(C)(=O)=O)n(CC(F)F)n1" ?
0

Would you mind telling me what %Inh value was observed for "COc1cccc(C2=C(Nc3cccc(C(=O)O)c3)C(=O)NC2=O)c1" ?
7

Would you mind telling me what %Inh value was observed for "COc1cc2ncn(-c3cc(OCc4ccncc4Br)c(C(N)=O)s3)c2cc1OC" ?
0

Would you mind telling me what %Inh value was observed for "COc1ccc(-c2cc3c(C)nc(N)nc3n([C@H]3CC[C@H](OCCO)CC3)c2=O)cn1" ?
0

Would you mind telling me what %Inh value was observed for Cc1nnc(-c2ccc3ncn(-c4ccc(S(C)=O)cc4)c3c2)o1 (stereo not shown) ?
16

====

- Test system: DYRK1A
- Experimental Setup: concentration: 1 μM, replicates: in singlicate; n = 1
Outcome Measure: %Inh (%)
Entry rule: numbers only, all in %.

Would you mind telling me what %Inh value was observed for "Nc1ncnc2c1ncn2-c1ccc(Cl)cc1" ?
0

Would you mind telling me what %Inh value was observed for "O=C(NCc1cccs1)c1cc(C(=O)c2c(Cl)cccc2Cl)c[nH]1" ?
0

Would you mind telling me what %Inh value was observed for "COc1cc2ncn(-c3cc(OCc4ccncc4)c(C(N)=O)s3)c2cc1OC" ?
13

Would you mind telling me what %Inh value was observed for "COc1cc(Nc2ccnc3ccc(C(F)(F)F)cc23)cc(OC)c1OC" ?
4

Would you mind telling me what %Inh value was observed for "CC(C)(C)c1ccc(C(=O)Nc2cn3cc(-c4ccccc4)ccc3n2)cc1" ?
0

Would you mind telling me what %Inh value was observed for "COc1cc2nccc(Nc3ccc(OCc4ccc(NC(C)=O)cc4)cc3)c2cc1OC.Cl" ?
15

Would you mind telling me what %Inh value was observed for "COc1cc(OC)cc(-c2cc3cnc(N)nc3nc2NC(=O)NC(C)(C)C)c1" ?
0

Would you mind telling me what %Inh value was observed for "Cl.NS(=O)(=O)c1cccc(Nc2cc(-c3ccc(F)cc3)n[nH]2)c1" ?
0

Would you mind telling me what %Inh value was observed for "CCc1nc(-c2cccc(C)c2)c(-c2ccncc2)s1" ?
0

Would you mind telling me what %Inh value was observed for "CCn1c(-c2nonc2N)nc2ccccc21" ?
49

Would you mind telling me what %Inh value was observed for "COc1cc2ncn(-c3cc(OCc4ccncc4Br)c(C(N)=O)s3)c2cc1OC" ?
3

Would you mind telling me what %Inh value was observed for "Cc1nc(N(C)[C@H]2CN(C(=O)CC#N)CC[C@H]2C)c2cc[nH]c2n1" ?
0

Would you mind telling me what %Inh value was observed for "CCC(=O)c1c(-c2ccccc2)c2cc(Cl)ccc2c(=O)n1Cc1ccc(C(=O)O)cc1" ?
0

Would you mind telling me what %Inh value was observed for "CN1C(=O)C(Nc2ccccc2)=C(c2ccccc2)C1=O" ?
0

Would you mind telling me what %Inh value was observed for "COC(=O)c1c(-c2ccccc2)c2cc(Br)ccc2c(=O)n1Cc1ccc(S(C)(=O)=O)cc1" ?
20

Would you mind telling me what %Inh value was observed for "Nc1nccc2scc(-c3ccc4c(c3)CCN4C(=O)Cc3ccccc3)c12" ?
0

Would you mind telling me what %Inh value was observed for "OCCCNc1nccc(-c2c(-c3cccc(C(F)(F)F)c3)nn3cc(C(F)(F)F)ccc23)n1" ?
26

Would you mind telling me what %Inh value was observed for "CCCNC(=O)Nc1ccc(Oc2ncnc3ccn(C)c23)cc1" ?
16

Would you mind telling me what %Inh value was observed for "COc1cc2ncn(-c3cc(OCc4ccc(S(C)(=O)=O)cc4)c(C(N)=O)s3)c2cc1OC" ?
22

Would you mind telling me what %Inh value was observed for "O=C(NCCNc1ccnc(Nc2ccc(F)cc2)n1)Nc1ccc2c(c1)OCO2" ?
7

Would you mind telling me what %Inh value was observed for "COc1cccc(-n2cnc3c(N)ncnc32)c1" ?
12

Would you mind telling me what %Inh value was observed for "COc1cc2ncn(-c3cc(OCCCc4ccccc4)c(C(N)=O)s3)c2cc1OC" ?
7

Would you mind telling me what %Inh value was observed for "Nc1nc(N)c2nc(-c3ccccc3)[nH]c2n1" ?
34

Would you mind telling me what %Inh value was observed for "CCc1ccc(-c2ccc3c(c2)-c2nn(C)cc2S(=O)(=O)N3C)cc1" ?
0

Would you mind telling me what %Inh value was observed for COc1ccc(CNC(=O)NC2CCN(c3ccnc(Nc4ccc(F)cc4)n3)C2)cc1 (centres unmarked) ?
0

Would you mind telling me what %Inh value was observed for "Cc1cccc(-c2cc(-c3c[nH]nc3-c3ccccn3)ccn2)c1" ?
24

Would you mind telling me what %Inh value was observed for COc1cc(Nc2nccc(N3CCC(NC(=O)C(C)c4ccc(Cl)cc4)C3)n2)cc(OC)c1OC (centres unmarked) ?
9

Would you mind telling me what %Inh value was observed for "Fc1cccc(CSc2nnc(-c3ccc4c(c3)CCO4)o2)c1" ?
62

Would you mind telling me what %Inh value was observed for "Cc1ccc(Oc2ccc(Nc3ncnc4cc[nH]c34)cc2C)cn1" ?
0

Would you mind telling me what %Inh value was observed for "Nc1n[nH]c2nnc(-c3ccccc3)c(-c3ccccc3)c12" ?
23

Would you mind telling me what %Inh value was observed for "CCC(=O)c1c(-c2ccccc2)c2cc(Cl)ccc2c(=O)n1Cc1cc(C(=O)NC2CC2)n(C)n1" ?
0

Would you mind telling me what %Inh value was observed for "O=c1cc(N2CCOCC2)nc2n(Cc3ccc(F)c(Cl)c3)ccn12" ?
12

Would you mind telling me what %Inh value was observed for COc1cc(Nc2nccc(N3CCC(NC(=O)C4COc5ccccc5O4)C3)n2)cc(OC)c1OC (centres unmarked) ?
0

Would you mind telling me what %Inh value was observed for "FC(F)(F)c1ccc(-c2ncn(CCCN3CCOCC3)c2-c2ccncc2)cc1" ?
6

Would you mind telling me what %Inh value was observed for "CN1C(=O)C(Nc2cc(Cl)c(O)c(Cl)c2)=C(c2ccc(Cl)cc2)C1=O" ?
0

Would you mind telling me what %Inh value was observed for "CCn1c(-c2ccoc2)nc2cnccc21" ?
10

Would you mind telling me what %Inh value was observed for "Cc1cccc(-c2nc(Nc3ccc4c(cnn4C)c3)c3ccccc3n2)n1" ?
0

Would you mind telling me what %Inh value was observed for "Nc1ncnc2c1ncn2-c1cccc(F)c1" ?
25
